Answer each item with its documented t1/2.
system: T1, Macaca fascicularis IL2Rγ extracellular domain expressed with a C-terminal myc-myc-hexahistidine tag (Macaca fascicularis)
T1 construct: also called mfIL-2Rg-MMH; mfIL-2RG-MMH
T1 chain: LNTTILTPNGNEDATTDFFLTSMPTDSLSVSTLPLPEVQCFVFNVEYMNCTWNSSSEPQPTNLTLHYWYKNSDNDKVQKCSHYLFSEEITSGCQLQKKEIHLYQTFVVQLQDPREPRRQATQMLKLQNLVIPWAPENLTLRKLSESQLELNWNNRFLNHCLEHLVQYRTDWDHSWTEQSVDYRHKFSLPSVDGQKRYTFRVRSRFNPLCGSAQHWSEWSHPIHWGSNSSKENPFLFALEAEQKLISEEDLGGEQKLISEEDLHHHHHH
procedure_text: SPR, captured mAb, 25C, dissociation pH 6.0

# binder, t1/2
measured = [
    ("H4H13538P (antibody, human IgG4 S228P, kappa, V domains shown, anti-IL2Rgamma mAb expressed with human IgG4 Fc) VH: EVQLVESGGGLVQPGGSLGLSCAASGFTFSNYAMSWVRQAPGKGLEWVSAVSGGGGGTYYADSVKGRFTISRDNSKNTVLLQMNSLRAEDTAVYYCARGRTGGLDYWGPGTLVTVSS VL: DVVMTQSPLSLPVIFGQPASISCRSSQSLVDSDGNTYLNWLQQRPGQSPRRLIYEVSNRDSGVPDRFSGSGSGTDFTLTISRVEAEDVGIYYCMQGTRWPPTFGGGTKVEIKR", "26 min"),
]

// below: t1/2 requested for another binder
## Input GET /values?readout=t1/2&item= H4H12900P (antibody, human IgG4 S228P, kappa, V domains shown, anti-IL2Rgamma mAb expressed with human IgG4 Fc) VH: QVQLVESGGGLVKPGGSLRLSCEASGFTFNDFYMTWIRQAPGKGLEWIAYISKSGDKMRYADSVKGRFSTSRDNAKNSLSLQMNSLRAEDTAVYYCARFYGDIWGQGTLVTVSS VL: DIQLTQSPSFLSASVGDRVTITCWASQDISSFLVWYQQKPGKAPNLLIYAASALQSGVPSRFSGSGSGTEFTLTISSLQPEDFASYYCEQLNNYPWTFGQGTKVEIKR
## Output 17 min
